Assay: soluble on expression in E. coli; label from the status in PepcDB or PDB records
assay.endpoint: soluble on expression in E. coli

GSHMFKCMEALGMESGEIHSDQITASSQYSTNWSAERSRLNYPENGWTPGEDSYREWIQVDLGLLRFVTAVGTQGAISKETKKKYYVKTYKIDVSSNGEDWITIKEGNKPVLFQGNTNPTDVVVAVFPKPLITRFVRIKPATWETGISMRFEVYGCKITDYPCSGMLGMVSGLISDSQITSSNQGDRNWMPENIRLVTSRSGWALPPAPHSYINEWLQIDLGEEKIVRGIIIQGGKHRENKVFMRKFKIGYSNNGSDWKMIMDDSKRKAKSFEGNNNYDTPELRTFPALSTRFIRIYPERATHGGLGLRMELLGCEVE    soluble
MNIEEFTSGLAEKGISLSPRQLEQFELYYDMLVEWNEKINLTSITEKKEVYLKHFYDSITAAFYVDFNQVNTICDVGAGAGFPSLPIKICFPHLHVTIVDSLNKRITFLEKLSEALQLENTTFCHDRAETFGQRKDVRESYDIVTARAVARLSVLSELCLPLVKKNGLFVALKAASAEEELNAGKKAITTLGGELENIHSFKLPIEESDRNIMVIRKIKNTPKKYPRKPGTPNKSPIEG    soluble
MGSDKIHHHHHHMAVRIVSRQPLTKGWSTDQKYKVQLEDGRLGLLRIAERPAYEAKRLEFQLVENLFGLGLPVAEPLSFWADDLSVYTLYEWVEGQDMNEVATSLSDSVLYDLGCQSGKFLRTLHALPIDQSQRDWNSFYQVKIDNKLAAYQAASHSYPTGPAMIDFVQANRHLLEGRPIAYHHGDFHTGNFLLGPDGKLKILDFDRYDIGDPWEEFNRLIFTADLSPAFARGQVDAYFDGAIPEEFWKLMALYVTVNCLAALSWAEQVDSEQIPMMKLQAQKISEWYEYFNHHLPKWYM    not soluble
MPSLQDLYAAFRRIAPYTHRTPLLTSRLLDGLLGKRLLLKAEHLQKTGSFKARGALSKALALENPKGLLAVSSGNHAQGVAYAAQVLGVKALVVMPEDASPYKKACARAYGAEVVDRGVTAKNREEVARALQEETGYALIHPFDDPLVIAGQGTAGLELLAQAGRMGVFPGAVLAPVGGGGLLAGLATAVKALSPTTLVLGVEPEAADDAKRSLEAGRILRLEAPPRTRADGVRTLSLGERTFPILRERVDGILTVSEEALLEAERLLFTRTKQVVEPTGALPLAAVLEHGARLPQTLALLLSGGNRDFSP    soluble
MAHHHHHHMKPSQPSYDKRAYQTIYPQYLDAELTPHDGRRLTRTQAVDDPTTNEVVEALKELGYTDIFVEPSASFPRSQGSIKYIMPPKGCVKVAIKRPKGEHYIPKSDFDTQTRGVTVEDIPNKMELLRRVSALIKIQHALKKQAEAAAASQTANTRKK    soluble

Inquiry: Tell me the measured soluble on expression in E. coli of MISYGELIRQIRQSKKISQKEVYTGVISKSYAIEFEKGTHAISSILLEKIVTKLMVSMEEFFFMYHQEELPEKEDFWEAYERACKTDEIAIWELLYQKISSEEGKINQVKSAAIKLELDHIKGKQVMDKKVVRILENYLIEAVFWTLEDIFLFTRMLPYLSLKSRVPFYYKLLNTLDRYRHFERGRRILQTAIASIIDDFIEKNEIEHMELMIRSLKKISDDCEGAYFKILCMYYHGIIERGEGAEIKQAIAILRVLGYENKALKYEAMYRQFSLKATI , please.
Reply text: not soluble

* * *

Assay: soluble on expression in E. coli; label from the status in PepcDB or PDB records
assay.endpoint: soluble on expression in E. coli

MGSDDQSAGDRIQKGFQINYMILRDADSGKIIWQENKDFSAPDQEHEARVPVKILDMRAVSREINFSTIESMENFRLDQKVLFKGRIMEEWFFEMGFVGANTTNTWQSTIEAAPESQMMPAKVLNGNVTIQTSFYDNETLITKSVVRLYYILEHHHHHH    not soluble
FEPMMQRDKIMQNLSYISDVNVLPDWMTVSQLLSYTEGVHPGFNRSKADALLRQTDIKPRAKIRALSKGMKVQLHLAIVIATNTQILILDEPTLGLDLVYRDTFYRHLLEWFHDGERVLIITSHEVSEIEHLLTDVLILKHGRPVLQTSMESISEDYFILDANDEHRAQIEAMHPLSSQKGLGTTKWLLSSQYADQAAGLGDVHGVKLADLFLALQKEAA    not soluble
MGSDKIHHHHHHMLEREGIEISLRTIQRDLNQIAQRFPIESNKAVPQGWRWQSDAPIQSLPHMTSSQAVTFMMVEEHLKHLLPPSLLDEMGPWFDLAKRSLSTQNNVRQWINRVRIVPASQPLIPPVVDRAAQQAIYEGLLQDKQIECVYRARVNQGEDKTYILNPLALVQKGAVIYLICTRHDKTEVQTFALHRFKSAKVLESRALHPVNFDIDHYIDSGALGFRVDYNQPTESIQLTLTMTEQTAKTFYESQLSKDQTITPIEENIVEVTATVPFTSQLVWWLRSFGKKLLHIEPVQVHNAVREIEPDSK    not soluble

* * *

Test: soluble on expression in E. coli; label from the status in PepcDB or PDB records
assay.endpoint: soluble on expression in E. coli

FGKVGYATNLTYTANRNKIMKMVHDYKNPSDGSLFSITELTLQDKGGVYLREKDAIGDVYVKGILARGKDGKLIEEEGGYKVDRSQRIKIGSVNPDFSIGWRHNVTWNNITLDLLFNGRFGGIVTSSTQAFLDDYGVSKDTYKARQNGGVWVNGTQYDAEKYYTTIGGEQLMAYYAYKATNIRLQEASLSYTLPGKWFGNVINRLTVSAIGRNLWMIYNKAPFDPEMTSSTGTYNRGDVFMPPSLRSVGFSVKIEL    not soluble
MSNYTWKQADIQTLISFYETLGEEINPKVQKVQQNSEANSFSEKAKKFGLLDLPIYSKCVDSSQLIAESASRVYHDAKEYMNNGSATEAELYRFVSSILKEVLEPIFNPKEIRNVLKGLITSLVDSRSRDEEIGSDIEKNVKYEVVRFLPESPPNFPGFNDNVSRSITNFIGYFALHTIRHHCYVNFGVDGELKFYQRNMYKKAFDDLRVNKAKPTVSVKPEASLKREPKAETPTLTRVKPEIRNDSDEDFCEIIEPAVKKSKTRQTSESNAKGGKELKDFPEKYMLEDLDKDDLPMNFKTKFRKLVEQNQMLRDEINDYKELIQLKIAEKKQRMG    not soluble

* * *

Experiment: soluble on expression in E. coli; label from the status in PepcDB or PDB records
assay.endpoint: soluble on expression in E. coli

Record excerpt, results attached:
LTTRDFDRTGRPLRFTELGFGSSPLGNLYRAISEEEAQALLERAWAGGIRYFDTAPLYGYGLAEERLGRFLAGHPRSDYVLSTKVGRLLRPVEPGEARDGLGKFFEVPERKERFDYGYDGVMRSLEASLDRLGLDRVDVLYAHDLDLFTHGSQEALEARLAEFMAGGYRALVELRDQGVISAFGAGVNEWQPCQWLAERGEFDLFLLAGRYTLLEQEALESFLPLAEERGIGIVIGGPYNSGVLATGPKPGSFYDYRLAPQAVLDRVAQIHTICERWGVRMFEAAFQFPLRHPAVLSVIPGPQSVGEVMENRIAADAELPPGLWEDLKVAGLLRPD    soluble
MGSSHHHHHHGKTIFVIVPTNEEQVAFLEALAKQDELNFDWQNPPTEPGQPVVILIPSDMVEWFLEMLKAKGIPFTVYVEEGGSENLYFQGGGGGGFVPNWYQHPDPALKYADDMEVYDYYQQYEAAKKAAREASTSSKKTAATSPALPRAKPHVTIA    soluble
MGSDKIHHHHHHMKQIGIIGCGWFGLPLAQALKQLGHKVIGTKRSIEGCEQLASLGITACPLDLNDDIFYNEAFANNTFANNINELLECQVLVINIPPGLRKKAGKAESRYLEQLSNLVHFIGPRGYQKLVFISTTGVYPAGDDAELPLSEADAKAHNDASEILLNAEALFAPMDNSCILRFAGLVGPNRHPGRFFAGKTGISGANVAVNLVHLDDCIGAVIKVINADKTAPVYNIVAPEHPSRGEFYPLATTHLGLVAPVFNQEVMPTKVISGALICQQLGFIYQYPDPLKMLYAC    not soluble
MGHHHHHHSHMSWLKEVIGTEKAVIAMCHLRALPGDPGFDTRKGMNWVIDRAHDDLMALQNGGVDAVMFSNEFSLPYLTKVRPETTAAMARIIGQLMSEIRVPFGVNVLWDPVASFDLAMATDAKFIREIFTGAYASDFGVWDTNVGETIRHQHRIGAGHVKTLFNIVPEAAVYLGNRDVCSIAKSTVFNNNPDALCVSGLTAGARTDSAILKRVKETVPDTVVLANTGVCLENVEEQLCIADGCVTATTFKKDGVFANFVDQARVAKFMEKVRHIRQ    soluble
MGSDKIHHHHHHMGKFLVEREQMRYPVDVYTGKIQAYPEGKPSAIAKIQVDGELMLTELGLEGDEQAEKKVHGGPDRALCHYPREHYLYWAREFPEQAELFVAPAFGENLSTDGLTESNVYMGDIFRWGEALIQVSQPRSPCYKLNYHFDISDIAQLMQNTGKVGWLYSVIAPGKVSADAPLELVSRVSDVTVQEAAAIAWHMPFDDDQYHRLLSAAGLSKSWTRTMQKRRLSGKIEDFSRRLWGK    not soluble

Batch of 6 sequences: report soluble on expression in E. coli for each.
1. MDNDKNSIIDIVGDGINYEKLKKVEKSLCQIDIITEFMNRSRHLQGKKVNGCIMRIDETKQLLFHVIIDGPVGSIYEGGTFFADINIQPYQNHSLIPRVCFHTFIFHPNLGKYGNWDMRGIQWERRSNLEVLYNFIVEGMRNVKYDIERRNLAQLEDMSQPNISRLAKEDWPKFERTAREFVMKMAGGTINGRKTIFAETKKRRRQDFLDEDIDVIGIS
2. YFKEKKIHPEAEMFDNRGFGVVAMMGLPLAGKDTYIKENFKNINVISLDDIREELNISSKRNSGKVAAIAISRAKQLLRRKESFIWNATNLRRENRQKLIRLCTAYGAKLKFIYLEVPYRELLSRNKMRSRYVPVEVINKMIRKMDMLEGEEIC
3. MEDYIKNWNKIISNCSFDNTYKMAWAKAIVETAISKDIDSALIISFEEIAELFLKYYWNQTIYFNLTQGSSLKKIPEALKYTKNLIDLYYAKKGDYFPQRYEKIIFEDFGIESEKNKTIKKIVKTLGQDVSWRFMNLSGETYPLYELVENQVVLSLENAKLLKKYSDFLFPMINYRWTQMLESFNHSPRISSKVRAIDEDSIKKRNNLNKFREFLDLEFSDNKRYCFYCGKEIVDDDLTIDHVIPWSFMYSDDIWNLVYCHRSENSSKSNRIPEETDVKALECRNKLLLEKLTENKISSKRVDELQLAIEKDYVKKFWISSRGLEHHHHHH
4. GSKAEKTLGDFAAEYAKSNRSTCKGCMEKIEKGQVRLSKKMVDPEKPQLGMIDRWYHPGCFVKNREELGFRPEYSASQLKGFSLLATEDKEALKKQLPGVKSEGKRKGDEVDGVDEVAKKK
5. MGHHHHHHSHMAESHPWSGRPSSSPRRSSTFANYAWKHTIKPNRILIRNARPLVINFATDRLPIIKPVDQIILEDAGTVGSALNLPSESICTRPGLLLFGHYNNDVPVTPLVDFKPDEPLQVVLTAHKTIVVPPGEFVMIIVCVNFEKIKSLDLIIHEMSTSNIPLPPTCGQTFKNFNTATPSLEIYGDVIECNDDQKTCVFTAVFPGLHRRCSLHGPLNFMGFVNSVNITGTILRVYYSGVSEAAPDSILVKFKTSSAVAFSKNPCQGHVPSHDDTLIPLVYTGPTLRLLPLETISIPFNTSFVAQNPDLKAIIYDNNLKDIRISATMWTGEQTPILAHNLTAAVKLIHSGTVFARAAFFSTKENKKACTLKLCPSTILLPGGELSLDTSTLPNCFK
6. VLNHSIEVALLAGYMASELGLNADKARRGGLLHDIGKAVDQELEGSHTTIGAELARRYGEKEDIINMILSHHGEEEPMTP

Reply text:
1. not soluble
2. not soluble
3. not soluble
4. soluble
5. not soluble
6. not soluble

Inquiry: # lookup: soluble on expression in E. coli of GPGSMSPRTSERILALGVRRLRIRSSSTASSSCNGVVEFSTCGGAGGPSYRPLAAMAMIANIQAVAFTDSRRSVFQNKKTLPSPHGRNITPDAAETKGRALFSDSNSECFPADLDPPSASQLDRILPSLNQLRDEIPSSEYVEELVRRQGVSTDLWSNGEKNNSADDDDE
Reply text: not soluble

These entries and their values trace back to the DeepSol protein solubility set.
